Target Or Test System: T1, EsCas13d, nuclease-dead (Eubacterium siraeum, UniProt B0MS50, R295A;H300A;R849A;H854A)
T1 sequence: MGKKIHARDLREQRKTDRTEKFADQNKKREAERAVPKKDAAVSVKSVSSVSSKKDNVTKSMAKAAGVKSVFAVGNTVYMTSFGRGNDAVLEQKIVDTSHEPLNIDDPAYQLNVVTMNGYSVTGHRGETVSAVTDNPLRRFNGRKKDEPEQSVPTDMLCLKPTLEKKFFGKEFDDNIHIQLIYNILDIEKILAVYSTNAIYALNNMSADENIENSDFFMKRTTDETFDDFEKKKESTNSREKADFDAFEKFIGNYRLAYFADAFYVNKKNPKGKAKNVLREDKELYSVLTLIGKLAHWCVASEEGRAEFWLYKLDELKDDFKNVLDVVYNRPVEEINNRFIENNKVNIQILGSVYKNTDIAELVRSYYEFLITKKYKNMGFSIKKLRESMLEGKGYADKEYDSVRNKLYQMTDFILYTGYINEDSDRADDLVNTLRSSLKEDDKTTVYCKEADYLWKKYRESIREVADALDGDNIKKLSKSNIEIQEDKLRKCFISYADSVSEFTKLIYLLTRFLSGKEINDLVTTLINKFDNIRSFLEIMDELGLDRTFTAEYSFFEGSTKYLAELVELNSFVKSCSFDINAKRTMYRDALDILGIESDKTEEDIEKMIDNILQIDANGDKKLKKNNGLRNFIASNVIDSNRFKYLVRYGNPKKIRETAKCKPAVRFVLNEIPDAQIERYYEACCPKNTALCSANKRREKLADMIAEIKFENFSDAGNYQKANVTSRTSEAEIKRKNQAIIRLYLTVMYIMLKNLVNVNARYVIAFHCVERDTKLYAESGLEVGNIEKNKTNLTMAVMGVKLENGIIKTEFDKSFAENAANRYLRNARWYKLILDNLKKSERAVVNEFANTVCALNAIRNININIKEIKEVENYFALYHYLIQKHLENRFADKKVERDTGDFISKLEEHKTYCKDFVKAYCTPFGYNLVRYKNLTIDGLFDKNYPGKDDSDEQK
Assay Remarks: crRNA (strand 1, pre-loaded); Mg2+; 40 mM Tris-HCl pH 7.5, 150 mM NaCl, 6 mM MgCl2, 1 mM DTT, 0.1% Tween-20, 0.2 mg/ml BSA; 25 C; 10 min per concentration, then washed
Experimental Parameters: tags: His6-TwinStrep-SUMO cleaved; N-terminal SNAP kept (SNAP-Surface 488); label: 3' end held by stalled T7 RNA polymerase
Reported Metric: Kd (nM)

[[record]]
binder = "target 2 MT 5'PFS AUA 3'PFS UAC (mixed) RNA 1: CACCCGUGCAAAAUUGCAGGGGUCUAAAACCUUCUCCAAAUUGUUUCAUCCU RNA 2: GGGAAUGGAUCCACAUCUACGAAUUCAUAAGGAUGAAACAAUUUGGAGAAGUACAGAUCGGAAGAGCACACGU"
reported_metric = "Kd"
reported_result = 7.2

[[record]]
binder = "target 1 U8C,A9U (mixed) RNA 1: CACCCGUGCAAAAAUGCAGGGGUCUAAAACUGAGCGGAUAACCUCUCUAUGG RNA 2: GGGAAUGGAUCCACAUCUACGAAUUCGUACCAUAGAGAGGUUUCCCGCUCACCGAGAUCGGAAGAGCACACGU"
reported_metric = "Kd"
reported_result = 20.5

[[record]]
binder = "target 1 MT 5'PFS GGA 3'PFS AUG (mixed) RNA 1: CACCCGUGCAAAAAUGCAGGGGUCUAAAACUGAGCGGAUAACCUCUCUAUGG RNA 2: GGGAAUGGAUCCACAUCUACGAAUUCGGACCAUAGAGAGGUUAUCCGCUCAAUGAGAUCGGAAGAGCACACGU"
reported_metric = "Kd"
reported_result = 34.5


All figures here come from paper PMC10786891.
